Recorded values, source patent US7135466B2.

For each record, write down the corresponding IC50.
molecular target: PDGF-Ra (Homo sapiens); construct: host or cells: G-292 human osteosarcoma cells; experiment: Inhibitory activity against PDGF-Ra phosphorylation by PDGF-AA stimulation using G292; type: cell-based; conditions: > means inhibition at indicated concentration not more than 50%, < and << not less than 50%; read-out: PDGF (E) IC50

Reported IC50, molecule COc1cc2ncnc(Oc3ccc(NC(=O)N[C@H]4CCN(Cc5ccccc5)C4)cc3)c2cc1OC : ____
0.021 µM

How about this molecule: CCCC(CCN1CCN(C)CC1)OC(=O)Nc1cc(C)c(Oc2ccnc3cc(OC)c(OC)cc23)cc1C (centres unmarked)
> 0.1 µM

How about this molecule: COc1cc2nccc(Oc3ccc(NC(=S)NC(=O)c4ccc(Cl)cc4)c(Cl)c3)c2cc1OC
> 0.1 µM

How about this molecule: COc1cc(Oc2ccnc3cc(OC)c(OC)cc23)ccc1NC(=O)NC1CCN(Cc2ccccc2)CC1
0.029 µM

How about this molecule: COc1cc2ncnc(Oc3ccc(NC(=S)NC(=O)c4cc(C)oc4C)cc3)c2cc1OC
< 0.01 µM

How about this molecule: COc1cc2nccc(Oc3ccc(NC(=O)NCCN4CCOCC4)cc3)c2cc1OC
< 0.01 µM

How about this molecule: COc1cc2nccc(Oc3cc(C)c(NCCOc4c(C)cccc4C)cc3C)c2cc1OC
> 0.1 µM

How about this molecule: COc1cc2ncnc(Oc3ccc(NC(=S)NC(=O)c4cc(Cl)cc(Cl)c4)cc3)c2cc1OC
0.046 µM

====

target: c-kit (Homo sapiens); construct: MO7e (human megakaryocytic leukemia cell line) which had been arrested for 20 hr; endogenous in cells; host or cells: MO7e human megakaryocytic leukemia cell line; assay: Inhibitory activity against c-kit autophosphorylation (MO7e cells, h-SCF); type: cell-based; conditions: c-kit IC50, MO7e cells, h-SCF stimulation
Sequence (P10721 26-976): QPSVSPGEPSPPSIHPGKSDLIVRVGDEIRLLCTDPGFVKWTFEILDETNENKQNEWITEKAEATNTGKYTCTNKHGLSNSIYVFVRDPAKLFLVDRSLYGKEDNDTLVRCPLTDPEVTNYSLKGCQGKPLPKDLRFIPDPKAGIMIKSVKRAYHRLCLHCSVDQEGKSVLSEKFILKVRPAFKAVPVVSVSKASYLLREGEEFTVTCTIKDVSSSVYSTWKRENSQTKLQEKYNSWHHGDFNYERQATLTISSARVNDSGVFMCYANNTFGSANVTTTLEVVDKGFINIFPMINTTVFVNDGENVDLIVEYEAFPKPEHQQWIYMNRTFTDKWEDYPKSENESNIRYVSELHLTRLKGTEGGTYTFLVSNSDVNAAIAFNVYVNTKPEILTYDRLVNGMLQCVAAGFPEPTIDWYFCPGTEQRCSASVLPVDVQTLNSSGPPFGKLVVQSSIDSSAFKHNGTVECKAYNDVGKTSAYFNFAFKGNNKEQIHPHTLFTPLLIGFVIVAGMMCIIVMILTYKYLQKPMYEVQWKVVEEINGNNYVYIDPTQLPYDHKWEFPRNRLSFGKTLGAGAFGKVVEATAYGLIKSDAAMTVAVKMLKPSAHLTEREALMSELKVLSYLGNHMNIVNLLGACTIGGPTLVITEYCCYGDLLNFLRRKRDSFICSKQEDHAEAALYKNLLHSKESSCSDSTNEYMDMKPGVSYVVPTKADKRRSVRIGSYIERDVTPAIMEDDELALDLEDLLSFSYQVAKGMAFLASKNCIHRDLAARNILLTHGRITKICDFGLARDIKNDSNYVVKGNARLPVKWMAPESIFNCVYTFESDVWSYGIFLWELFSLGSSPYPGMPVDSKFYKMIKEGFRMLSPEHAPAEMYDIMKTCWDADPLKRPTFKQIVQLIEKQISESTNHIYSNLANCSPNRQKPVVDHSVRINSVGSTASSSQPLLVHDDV
measured attribute: IC50 (nM)
API: value field is a number in nM; no unit string.

Reported IC50, compound COc1cc2nccc(Oc3ccc(NC(=S)NC(=O)N(CCCl)CCCl)cc3)c2cc1OC [Example 1042] : ____
107

====

biological target: PDGF-Ra (Homo sapiens, UniProt P16234); construct: host or cells: G-292 human osteosarcoma cells; test: Inhibitory activity against PDGF-Ra phosphorylation by PDGF-AA stimulation using G292; type: cell-based; conditions: G292; figure in parentheses in >100( ); at 100 nM; read-out: PDGF (E) inhibition (%) at 100 nM
Sequence (P16234 24-1089): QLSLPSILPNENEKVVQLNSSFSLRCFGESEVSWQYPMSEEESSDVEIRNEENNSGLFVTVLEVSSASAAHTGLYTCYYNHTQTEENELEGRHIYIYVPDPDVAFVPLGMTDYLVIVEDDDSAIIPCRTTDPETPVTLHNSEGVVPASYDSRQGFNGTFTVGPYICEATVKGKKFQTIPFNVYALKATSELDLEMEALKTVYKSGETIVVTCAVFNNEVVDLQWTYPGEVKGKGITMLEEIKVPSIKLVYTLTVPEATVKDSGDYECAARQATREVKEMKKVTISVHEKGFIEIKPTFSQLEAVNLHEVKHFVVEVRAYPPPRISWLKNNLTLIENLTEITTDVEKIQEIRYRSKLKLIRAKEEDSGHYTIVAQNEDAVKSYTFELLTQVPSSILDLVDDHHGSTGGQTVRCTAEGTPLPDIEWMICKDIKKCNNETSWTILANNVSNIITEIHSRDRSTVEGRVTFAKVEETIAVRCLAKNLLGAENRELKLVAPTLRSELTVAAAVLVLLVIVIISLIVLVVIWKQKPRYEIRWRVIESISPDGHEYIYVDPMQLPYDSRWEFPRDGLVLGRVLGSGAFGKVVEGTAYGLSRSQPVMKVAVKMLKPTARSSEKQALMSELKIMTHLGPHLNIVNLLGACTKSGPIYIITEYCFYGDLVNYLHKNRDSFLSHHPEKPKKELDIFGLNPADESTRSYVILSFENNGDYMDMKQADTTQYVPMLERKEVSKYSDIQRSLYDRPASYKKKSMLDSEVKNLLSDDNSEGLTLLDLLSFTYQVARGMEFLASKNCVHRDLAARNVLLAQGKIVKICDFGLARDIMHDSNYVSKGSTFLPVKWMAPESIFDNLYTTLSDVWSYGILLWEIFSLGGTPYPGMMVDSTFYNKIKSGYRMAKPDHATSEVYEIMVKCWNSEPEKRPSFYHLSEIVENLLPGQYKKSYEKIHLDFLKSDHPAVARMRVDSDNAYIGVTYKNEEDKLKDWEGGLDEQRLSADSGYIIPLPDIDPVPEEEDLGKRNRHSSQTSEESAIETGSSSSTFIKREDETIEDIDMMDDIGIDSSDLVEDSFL
Use label 1 when the recorded inhibition at 0.1 µM is no lower than 40%; use label 0 when it is lower.

Determine whether this molecule has inhibition at 0.1 µM no lower than 40%: COc1cc2nccc(Oc3cc(C)c(NC(=O)OCc4ccc(C)cc4)cc3C)c2cc1OC [Example 255]
label 0

How about this molecule: COc1cc2nccc(Oc3ccc(NC(=S)NC(=O)c4ccccc4C)c(Cl)c3)c2cc1OC [Example 1101]
label 0

How about this molecule: COc1cc2nccc(Oc3cc(C)c(NC(=O)OCCN4CCOCC4)cc3C)c2cc1OC [Example 307]
label 1

How about this molecule: COc1cc2ncnc(Oc3ccc(NC(=O)OCCCOc4ccc(F)cc4)c(C)c3C)c2cc1OC [Example 156]
label 1

How about this molecule: CCCCCCCCCCCCCCCCCCOC(=O)Nc1ccc(Oc2ccnc3cc(OC)c(OC)cc23)c(C)c1C [Example 328]
label 0

How about this molecule: COc1cc2nccc(Oc3ccc(NCCOc4c(C)cccc4C)c(C)c3C)c2cc1OC [Example 894]
label 1

How about this molecule: COc1cc2nccc(Oc3ccc(NC(=S)NC(=O)c4ccccc4)c(Cl)c3)c2cc1OC [Example 1107]
label 1

How about this molecule: COc1cc2nccc(Oc3ccc(NC(=S)NC(=O)c4ccc(C5CCCCC5)cc4)cc3Cl)c2cc1OC [Example 1127]
label 0

====

biological target: PDGF-Ra (Homo sapiens); construct: host or cells: G-292 human osteosarcoma cells; assay: Inhibitory activity against PDGF-Ra phosphorylation by PDGF-AA stimulation using G292; assay type: cell-based; settings: > means inhibition at indicated concentration not more than 50%, < and << not less than 50%; read-out: PDGF (E) IC50
For each record, write down the corresponding pIC50.
# pIC50 = -log10(concentration in molar units)

Reported pIC50, molecule COc1cc2nccc(Oc3ccc(NC(=O)NC4CCN(Cc5ccccc5Cl)C4)cc3)c2cc1OC (stereo not shown) [Example 579] : ____
7.66

How about this molecule: CCN(CCNC(=O)Nc1ccc(Oc2ccnc3cc(OC)c(OC)cc23)cc1OC)c1cccc(C)c1 [Example 670]
7.82

How about this molecule: COc1cc2nccc(Oc3ccc(NC(=S)NC(=O)N4CCCC4)cc3Cl)c2cc1OC [Example 1051]
7.85

How about this molecule: COc1cc2ncnc(Oc3ccc(NC(=O)NCCN(C(C)C)C(C)C)c([N+](=O)[O-])c3)c2cc1OC [Example 659]
7.72

How about this molecule: COc1cc2nccc(Oc3ccc(NC(=S)NC(=O)CCc4cccc(C)c4)cc3Cl)c2cc1OC [Example 1184]
7.26

How about this molecule: COc1cc2nccc(Oc3ccc(NC(=O)NCCN4CCCCC4)c(C)c3C)c2cc1OC [Example 675]
7.34

How about this molecule: CCCCN(CCCC)CCNC(=O)Nc1ccc(Oc2ncnc3cc(OC)c(OC)cc23)cc1OC [Example 688]
7.47

How about this molecule: COc1cc2nccc(Oc3ccc(NC(=S)NC(=O)CCC4CCCC4)cc3Cl)c2cc1OC [Example 1030]
7.85

How about this molecule: COc1cc2nccc(Oc3ccc(NC(=S)NC(=O)[C@H](C)c4ccccc4)cc3Cl)c2cc1OC [Example 744]
7.40

How about this molecule: COc1cc(Oc2ncnc3cc(OC)c(OC)cc23)ccc1NC(=O)NCCN1CCCCC1 [Example 680]
7.46

How about this molecule: COc1cc2nccc(Oc3ccc(NC(=S)NC(=O)c4ccccc4Cl)c(F)c3)c2cc1OC [Example 905]
8.30

How about this molecule: COc1cc2nccc(Oc3ccc(NC(=S)NC(=O)c4ccccc4I)cc3F)c2cc1OC [Example 915]
8.05

====

target: PDGF-Ra (Homo sapiens, UniProt P16234); construct: host or cells: G-292 human osteosarcoma cells; experiment: Inhibitory activity against PDGF-Ra phosphorylation by PDGF-AA stimulation using G292; type: cell-based; conditions: > means inhibition at indicated concentration not more than 50%, < and << not less than 50%; read-out: PDGF (E) IC50
measured attribute: pIC50
# pIC50 = -log10(concentration in molar units)

Reported pIC50, compound COc1cc2ncnc(Oc3ccc(NC(=O)OCC4CCCCCC4)c([N+](=O)[O-])c3)c2cc1OC [Example 506] : ____
7.13

How about this compound: CCCCc1ccc(C(=O)NC(=S)Nc2ccc(Oc3ccnc4cc(OC)c(OC)cc34)cc2F)cc1 [Example 995]
7.06

How about this compound: CCN(CC)C(C)CNC(=S)Nc1ccc(Oc2ccnc3cc(OC)c(OC)cc23)cc1 (stereo not drawn) [Example 588]
7.44

How about this compound: COc1ccccc1COC(=O)N(C)c1ccc(Oc2ncnc3cc(OC)c(OC)cc23)cc1 [Example 490]
7.68

How about this compound: COc1cc2nccc(Oc3ccc(NC(=O)OC4CCCN(C)C4)cc3)c2cc1OC (stereo not drawn) [Example 462]
7.28

How about this compound: COc1cc2nccc(Oc3ccc(NC(=S)NC(=O)C4CCCCC4)cc3Cl)c2cc1OC [Example 1179]
7.85

How about this compound: COc1cc2ncnc(Oc3ccc(NC(=S)NC(=O)C4CC4c4ccccc4)cc3)c2cc1OC (stereo not drawn) [Example 1060]
7.41

How about this compound: COc1cc2ncnc(Oc3ccc(NC(=S)NC(=O)C4CC4C)cc3)c2cc1OC (stereo not drawn) [Example 1191]
7.51

How about this compound: COc1cc2nccc(Oc3ccc(NC(=O)NN4CCCCC4)cc3)c2cc1OC [Example 592]
7.64

How about this compound: CCC(Oc1ccccc1)C(=O)NC(=S)Nc1ccc(Oc2ccnc3cc(OC)c(OC)cc23)cc1 (stereo not drawn) [Example 741]
7.31

How about this compound: COc1cc2nccc(Oc3ccc(NCCOc4ccccc4OC)cc3C)c2cc1OC [Example 880]
7.80

How about this compound: COc1cc2ncnc(Oc3ccc(NC(=O)NCCN4CCCCC4)cc3)c2cc1OC [Example 676]
7.59

How about this compound: COc1cc2ncnc(Oc3ccc(NC(=O)NC4CCN(Cc5ccccc5C)C4)c([N+](=O)[O-])c3)c2cc1OC (stereo not drawn) [Example 570]
7.64

How about this compound: COc1cc2nccc(Oc3ccc(NC(=S)NCCCN4CCOCC4)c(C)c3C)c2cc1OC [Example 548]
7.34

How about this compound: COc1cc2ncnc(Oc3ccc(NC(=S)NC(=O)CCCl)cc3)c2cc1OC [Example 1199]
7.38

How about this compound: COc1cc(Oc2ncnc3cc(OC)c(OC)cc23)ccc1NC(=O)NCCN1CCCC1 [Example 632]
7.44

How about this compound: COc1cc2ncnc(Oc3ccc(NC(=S)NCCCN4CCOCC4)cc3)c2cc1OC [Example 533]
7.19

How about this compound: COc1cc2nccc(Oc3ccc(NCCOc4c(OC)cccc4OC)cc3C)c2cc1OC [Example 882]
7.64

How about this compound: CCN(C(=O)OC1CCCCCC1)c1ccc(Oc2ncnc3cc(OC)c(OC)cc23)cc1Cl [Example 489]
7.24

How about this compound: COc1cccc(CNC(=O)COc2ccc(Oc3ncnc4cc(OC)c(OC)cc34)cc2)c1 [Example 801]
7.89
